Molecular target: Sodium channel (site 1) (Homo sapiens, UniProt P35498+P35499+Q01118+Q14524+Q15858+Q99250+Q9NY46+Q9UI33+Q9UQD0+Q9Y5Y9)
Assay: Na+ channel (site1) CEREP ligand profiling
Type: protein assay
Conditions: compound concentration 10 uM
Quantity Kind: inhibition at 10 µM

**Query** What does the data say about its inhibition at 10 µM? Entry: CCCCN(CCCC)C(=O)CN1C[C@H](c2cc(OC)c3c(c2)OCO3)[C@@H](C(=O)O)[C@@H]1CC(C)(C)CCC
**Result** 22% (not active)

---

Target: Voltage-gated (volt-dependent) potassium channel (Homo sapiens, UniProt O43525+O43526+O95259+P16389+P17658+P22001+P22459+P22460+P48547+P51787+P56696+Q03721+Q09470+Q12809+Q14003+Q14721+Q16322+Q6PIU1+Q8NCM2+Q8TAE7+Q8TDN1+Q8TDN2+Q92953+Q96KK3+Q96L42+Q96PR1+Q96RP8+Q9BQ31+Q9H252+Q9H3M0+Q9NR82+Q9NS40+Q9NSA2+Q9NZV8+Q9UIX4+Q9UJ96+Q9UK17+Q9ULD8+Q9ULS6+Q9UQ05)
Test: K+ channel (volt-dependent) CEREP ligand profiling
Format: protein assay
Conditions: compound concentration 10 uM
Quantity Kind: inhibition at 10 µM

**Query** What does the data say about its inhibition at 10 µM? Entry: CCCCN(CCCC)C(=O)CN1C[C@H](c2cc(OC)c3c(c2)OCO3)[C@@H](C(=O)O)[C@@H]1CC(C)(C)CCC [ABT-546]
**Result** < 10% (not active)

Measured values drawn from ChEMBL document CHEMBL4507258 for this set.
